From: PubChem BioAssay (NCI)

Tested on: OVCAR-5 ovarian
assay-procedure: NCI tumour cell line growth inhibition, 48 h
endpoint-label: TGI

INSERT INTO assay_data (compound, measurement) VALUES
  ('Cc1cn(CC2=NCCN2)c(=O)[nH]c1=O', '> 100 µM'),
  ('CC(=O)Oc1c(C)cc(-c2cc(C)c(OC(C)=O)c(C)c2)cc1C', '> 100 µM'),
  ('COC(=O)c1cnc(=O)n(C2CC(O)C(CO)O2)c1 (stereo not drawn)', '> 100 µM');

* * *

# TGI annotations
Tested on: HCT-116 colon
assay-procedure: NCI tumour cell line growth inhibition, 48 h
endpoint-label: TGI

INSERT INTO measurements (molecule, measurement) VALUES
  ('O=C(NCCN1C(=O)CN=C(c2ccc(Cl)cc2)c2cc(Cl)ccc21)OCc1ccccc1', '24.8 µM'),
  ('O=C1c2ccccc2-c2c1c1ccccc1c(=O)n2CCO', '> 79.3 µM'),
  ('COc1cc(-c2cc(C(=O)N3CCN(C(=O)c4ccccc4NCc4ccco4)CC3)nc3cc(-c4ccccc4)nn23)cc(OC)c1OC', '> 100 µM'),
  ('CCOC(=O)C1(Cc2ccccc2)Cc2cc3c(cc2C1)CCC3', '> 100 µM'),
  ('O=S(=O)(O)CS(=O)(=O)OCCCl', '> 100 µM'),
  ('O=C1C=C[C@]2(C[C@@H](c3cccc(C(F)(F)F)c3)O[C@@H](c3cccc(C(F)(F)F)c3)O2)O1', '2.64 µM'),
  ('Cc1ccc(S(=O)(=O)NC(=O)NC(CO)C(=O)O)cc1 (configuration not stated)', '> 100 µM'),
  ('COc1cc([C@@H]2c3cc4c(cc3[C@H](OC3OC5COC(C(C)C)OC5C(O)C3O)C3COC(=O)[C@@H]32)OCO4)cc(OC)c1O (some centres not stated)', '13.5 µM'),
  ('Cc1ccc(-c2sc(-c3ccc(C)cc3)c3c2C2CCC3C2)cc1', '> 50 µM'),
  ('O=[N+]([O-])c1ccc(Cl)cc1-n1nc(-c2ccccc2)cc1-c1ccccc1', '> 100 µM'),
  ('O=C1NCC2(CCNCC2)N1c1ccccc1', '> 100 µM'),
  ('CC(=O)OC1/C(=C/c2ccc([N+](=O)[O-])cc2)C[C@H]2[C@@H]3CC=C4C[C@@H](OC(C)=O)CC[C@]4(C)[C@H]3CC[C@]12C (some centres not stated)', '> 100 µM'),
  ('Clc1ccccc1/C=C/c1nsc(/C=C/c2ccccc2Cl)n1', '> 100 µM'),
  ('O=C(Nc1ccncc1)C(=O)c1cn(S(=O)(=O)c2ccc(Br)cc2)c2ccccc12', '> 100 µM'),
  ('O=C1C2=C(c3ccccc31)C(c1cccc(Cl)c1)NC(=S)N2 (configuration not stated)', '> 100 µM'),
  ('CC1=COC(=O)c2ccccc2N1', '> 100 µM'),
  ('CCCCOC(=O)C(=O)C(CC(C(=O)Cc1ccccc1)c1ccccc1)C(=O)C=C(C)C (configuration not stated)', '> 100 µM');

* * *

System: U251 CNS
assay-procedure: NCI tumour cell line growth inhibition, 48 h
# TGI annotations
endpoint-label: TGI

INSERT INTO results (compound, measurement) VALUES
  ('COC1C=C(Nc2cccc(Cl)c2)C(=O)C1 (stereo unspecified)', '> 100 µM'),
  ('CC(=O)OCC1OC(Nc2ccc3nc(C)n(-c4cccc(C)c4)c(=O)c3c2)C(OC(C)=O)C(OC(C)=O)C1OC(C)=O (stereo unspecified)', '> 62.5 µM'),
  ('CC1(C)CC(=O)C2=C(C1)NC(SSC1=C(C#N)C(c3ccccc3)C3=C(CC(C)(C)CC3=O)N1)=C(C#N)C2c1ccccc1 (stereo unspecified)', '64.2 µg/mL'),
  ('C[C@@H](c1ccc2nccn2c1)n1nnc2ncc(-c3cnn(C)c3)nc21', '> 100 µM'),
  ('CCOC(=O)Cc1c(Cc2[nH]c(C(=O)OCc3ccccc3)c(CC(=O)OCC)c2CC(=O)OCC)[nH]c(C(=O)OCc2ccccc2)c1CC(=O)OCC', '> 100 µM'),
  ('Cc1ccc(/C=C2\CN(C)CC3C(c4ccc(C)cc4)=C(C#N)C(=O)NC23)cc1 (stereo unspecified)', '> 50 µM'),
  ('O=C1CC2CC=C[C@H]3c4cc5c(cc4C(=O)N1C23)OCO5 (stereo partly specified)', '> 50 µM'),
  ('COc1cc[nH]c1/C=C1\C(=O)Nc2ccc(F)c(C#C[C@@H](O)[C@@H](N)[C@@H](C)O)c21', '2.61 µM'),
  ('CC(=O)Nc1ccc(Nc2cc(=O)n(C)c(=O)[nH]2)cc1', '> 100 µM'),
  ('N#Cc1cccc(C2ON=C(c3ccc([N+](=O)[O-])cc3)N2C23CC4CC(CC(C4)C2)C3)c1 (stereo unspecified)', '> 100 µM'),
  ('NC(N)=NC(CC(=O)O)c1ccccc1 (stereo unspecified)', '> 100 µM');

* * *

# GI50 annotations
Tested on: OVCAR-5 ovarian
assay-procedure: NCI tumour cell line growth inhibition, 48 h
endpoint-label: GI50

INSERT INTO results (molecule, endpoint_label, measurement) VALUES
  ('C[C@@H](c1ccc2nccn2c1)n1nnc2ncc(-c3cnn(C)c3)nc21', 'GI50', '> 100 µM'),
  ('O=[N+]([O-])c1ccc(Sc2ncccn2)c([N+](=O)[O-])c1', 'GI50', '7.35 µM'),
  ('CC1(C)N=C(N)N=C(N)N1c1cccc(/C=C/C=C/c2cccc([N+](=O)[O-])c2)c1', 'GI50', '10.5 µM'),
  ('Cn1cc(-c2ccc(=O)n(Cc3cccc(-c4ncc(OCCN5CCOCC5)cn4)c3)n2)cn1', 'GI50', '> 100 µM'),
  ('CC12OC(C(=O)C13CC3)C1C(=O)c3ccccc3C(=O)C12 (stereo unspecified)', 'GI50', '47.4 µM'),
  ('Cc1cc(NC(=O)C2c3ccccc3C(=O)N(CC(C)C)C2c2cccs2)no1 (stereo unspecified)', 'GI50', '> 100 µM');

* * *

System: NCI-H226 lung
assay-procedure: NCI tumour cell line growth inhibition, 48 h
# TGI annotations
endpoint-label: TGI

INSERT INTO assay_data (compound, assay_target, measurement) VALUES
  ('Nc1cccc2c1C(=O)N(C1CCC(=O)NC1=O)C2=O (stereo not drawn)', 'NCI-H226 lung', '> 100 µM'),
  ('Cn1nc(-c2ccccc2NC(=O)C(F)(F)F)c(=O)n(C)c1=S', 'NCI-H226 lung', '> 100 µM'),
  ('CNC(=O)OCc1nc(SC(C)C)n(C)c1COC(=O)NC', 'NCI-H226 lung', '> 100 µM');

* * *

Tested on: MDA-N
assay-procedure: NCI tumour cell line growth inhibition, 48 h
endpoint-label: TGI

INSERT INTO measurements (compound, measurement) VALUES
  ('CN(C)CCN1C(=O)CC[C@@]2(C)C1=CC[C@@H]1[C@@H]2CC[C@@]2(C)[C@H]1CC[C@]2(C)O', '> 100 µM'),
  ('CCCCOC(=O)C(=O)C(CC(C(=O)Cc1ccccc1)c1ccccc1)C(=O)C=C(C)C (stereo not given)', '> 100 µM'),
  ('N=C(/C=C/c1ccc(-c2cn3cc(/C=C/C(=N)N4CCCC4)ccc3n2)cc1)N1CCCC1', '> 100 µM'),
  ('O=C(O)CCC(NC(=O)c1ccc(Nc2nc3ccccc3nc2C(=O)O)cc1)C(=O)O (stereo not given)', '> 100 µM'),
  ('CC(=O)OCC1OC(Nc2ccc3nc(C)n(-c4cccc(C)c4)c(=O)c3c2)C(OC(C)=O)C(OC(C)=O)C1OC(C)=O (stereo not given)', '> 62.5 µM'),
  ('CC(C)C1CC=NN1C(=O)OC(C)(C)C (stereo not given)', '> 100 µM'),
  ('CNNC1=NS(=O)(=O)c2cc(C)c(Cl)cc2S1', '> 10 µM'),
  ('COc1ncnc2c1cnn2Cc1cn(COCC(O)CO)nn1 (stereo not given)', '> 100 µM'),
  ('Cc1ccc(/C=C2\N=C(N3CCCCC3)NC2=O)cc1', '> 100 µM'),
  ('COCCOCN(C(=O)C1=CCC2(CC1)OCCO2)c1ccccc1I', '> 50 µM');

* * *

System: K-562 leukemia
assay-procedure: NCI tumour cell line growth inhibition, 48 h
# TGI annotations
endpoint-label: TGI

INSERT INTO assay_data (compound, assay_target, measurement) VALUES
  ('CCOc1cc(/C=N\N(C)C)cc(/C=N\N(C)C)c1O', 'K-562 leukemia', '> 100 µM'),
  ('CN(C)CCOc1ccc(I)cc1Cc1ccccc1', 'K-562 leukemia', '11.2 µM'),
  ('Cc1nc(-c2ccccc2)c(C)n2c1nc1ccccc12', 'K-562 leukemia', '> 100 µM'),
  ('Cc1c(NC(=O)C(=O)N=NC(=O)c2ccncc2)c(O)c2ccccc2c1O', 'K-562 leukemia', '> 82 µM'),
  ('NNC(=O)/C(=C/c1cccc([N+](=O)[O-])c1)NC(=O)c1ccccc1', 'K-562 leukemia', '> 100 µM'),
  ('COc1ccccc1C(=O)/C=C/c1cc2cccc(OC)c2[nH]c1=O', 'K-562 leukemia', '> 89.1 µM'),
  ('O=C1C2=C(c3ccccc31)C(c1ccc(Cl)cc1)N1C(=O)CCSC1=N2 (stereo not given)', 'K-562 leukemia', '> 100 µM'),
  ('S=c1[nH]nc(COc2ccc(Cl)cc2)o1', 'K-562 leukemia', '> 100 µM'),
  ('CC(O)c1c2c(cc3c1CC1(C3)Cc3cc4c(c(C(C)O)c3C1)CCC4)CCC2 (stereo not given)', 'K-562 leukemia', '26.8 µM'),
  ('O=C1C(C(O)(C(F)(F)Cl)C(F)(F)Cl)CCC1C(O)(C(F)(F)Cl)C(F)(F)Cl (stereo not given)', 'K-562 leukemia', '> 10 µM'),
  ('C[C@@H](c1ccc2nccn2c1)n1nnc2ncc(-c3cnn(C)c3)nc21', 'K-562 leukemia', '> 100 µM'),
  ('NS(=O)(=O)c1ccc(NC(=O)c2cc([N+](=O)[O-])cc([N+](=O)[O-])c2)cc1', 'K-562 leukemia', '> 100 µM'),
  ('CC1=COC(=O)c2ccccc2N1', 'K-562 leukemia', '> 100 µM'),
  ('OB([O][Hg][c]1ccccc1)[O][Hg][c]1ccccc1', 'K-562 leukemia', '4.96 µM'),
  ('COC(=O)[C@@H]1C=C[C@@H](C#N)n2c(=O)n(-c3ccccc3)c(=O)n21', 'K-562 leukemia', '> 100 µM'),
  ('COc1ncnc2c1cnn2Cc1cn(COCC(O)CO)nn1 (stereo not given)', 'K-562 leukemia', '> 100 µM'),
  ('CCCCCCCCCCCCCCCC(=O)ON1C(=S)NC(C)(c2ccccc2)C1=S (stereo not given)', 'K-562 leukemia', '> 100 µM'),
  ('O=C(c1cccs1)c1c(C(F)(F)F)n([O-])c2ccc(C(F)(F)F)cc2[n+]1=O', 'K-562 leukemia', '1.21 µM'),
  ('CC1(C)N=C(N)N=C(N)N1c1cccc(/C=C/C=C/c2cccc([N+](=O)[O-])c2)c1', 'K-562 leukemia', '19.6 µM'),
  ('NC(N)=NC(CC(=O)O)c1ccccc1 (stereo not given)', 'K-562 leukemia', '> 100 µM'),
  ('COc1cc([C@@H]2c3cc4c(cc3[C@H](OC3OC5COC(C(C)C)OC5C(O)C3O)C3COC(=O)[C@@H]32)OCO4)cc(OC)c1O (stereo not given in full)', 'K-562 leukemia', '> 100 µM'),
  ('O=C1/C(=C\c2ccc(Cl)cc2)CN(C(=S)Nc2ccccc2)C/C1=C\c1ccc(Cl)cc1', 'K-562 leukemia', '7.67 µM'),
  ('COc1ccc(N(C)c2nc(C)nc3ccccc23)cc1', 'K-562 leukemia', '> 100 µM'),
  ('N#Cc1cccc(C2ON=C(c3ccc([N+](=O)[O-])cc3)N2C23CC4CC(CC(C4)C2)C3)c1 (stereo not given)', 'K-562 leukemia', '> 100 µM'),
  ('CC1=C(C(=O)Nc2ccc([N+](=O)[O-])cc2)C(c2ccco2)C(C(=O)Nc2ccc([N+](=O)[O-])cc2)=C(C)N1', 'K-562 leukemia', '> 100 µM'),
  ('Nc1ccn(C=C=CCO)c(=O)n1', 'K-562 leukemia', '> 1000 µM'),
  ('COC(=O)C1Cc2c([nH]c3ccccc23)C(c2cccc(O)c2)N1 (stereo not given)', 'K-562 leukemia', '> 100 µM'),
  ('C1=CN2C[n+]3cccc(OCc4ccccc4)c3N=C2C(OCc2ccccc2)=C1', 'K-562 leukemia', '42.4 µM'),
  ('O=[N+]([O-])c1ccc(Cl)cc1-n1nc(-c2ccccc2)cc1-c1ccccc1', 'K-562 leukemia', '> 100 µM'),
  ('O=C1C2=C(c3ccccc31)C(c1cccc(Cl)c1)NC(=S)N2 (stereo not given)', 'K-562 leukemia', '> 100 µM');
